The origin of these recorded values is PubChem BioAssay AID504332.

# system_under_test: Histone-lysine N-methyltransferase EHMT2 (Homo sapiens)
# test_name: qHTS Assay for Inhibitors of Histone Lysine Methyltransferase G9a; further: nearly all actives have a fitted effect of over 75% in size
# condition: G9a H3K9 monomethylation, AlphaScreen, 2 h; series mostly up to 59 µM
Screen size: about 350,000 compounds; about 31,000 (8.9%) were called active. Another 15% or so got no clear call; they are omitted. The call rests on the fitted dose curve; in most records, active means well fitted inhibition curve with a large enough effect; inconclusive means small, poorly fitted or top-dose-only effect; inactive means no such curve, though single readings can be large or run the other way. Many of the other results were omitted from the sample, so actives are more common in it than they were.
Outcome codes: True = active, False = inactive

{"columns": ["molecule", "system_under_test", "class_assignment"],
 "data": [
  ["COC(=O)c1ccccc1NC(=O)c1cnn(-c2ccc(F)cc2)c1-n1cccc1", "Histone-lysine N-methyltransferase EHMT2 (Homo sapiens)", "False"],
  ["Oc1ccc(-c2[nH]ncc2-c2nc3ccccc3s2)c(O)c1", "Histone-lysine N-methyltransferase EHMT2 (Homo sapiens)", "False"],
  ["COc1ccc(-c2nc3ccc(C(=O)NCc4ccc(C)cc4)cc3nc2-c2ccc(OC)cc2)cc1", "Histone-lysine N-methyltransferase EHMT2 (Homo sapiens)", "False"],
  ["CC(=O)N/C(=C\\c1ccccc1)C(=O)OC(C)C(=O)N(C)c1ccccc1 (stereo not drawn)", "Histone-lysine N-methyltransferase EHMT2 (Homo sapiens)", "False"],
  ["CSc1ccc(NC(=O)Cn2nnnc2-c2ccccc2F)cc1", "Histone-lysine N-methyltransferase EHMT2 (Homo sapiens)", "False"],
  ["Cc1cc(O)ccc1-c1cnc2ccccc2n1", "Histone-lysine N-methyltransferase EHMT2 (Homo sapiens)", "True"],
  ["COc1ccc(NC(=O)C2CCN(c3ccc(Sc4ccc(C)cc4)nn3)CC2)c(OC)c1", "Histone-lysine N-methyltransferase EHMT2 (Homo sapiens)", "False"],
  ["COc1ccccc1CNC(=O)CCCn1c(=O)c2ccccc2n(CC(=O)Nc2ccc(C)cc2Cl)c1=O", "Histone-lysine N-methyltransferase EHMT2 (Homo sapiens)", "False"],
  ["COc1ccc(Cn2c(C(=O)O)c(CNCCc3cccs3)c3ccc(OC)cc32)cc1", "Histone-lysine N-methyltransferase EHMT2 (Homo sapiens)", "False"],
  ["COc1ccc(OCC(=O)Nc2nnc(-c3ccco3)s2)cc1", "Histone-lysine N-methyltransferase EHMT2 (Homo sapiens)", "True"],
  ["COC(=O)c1ccc(NC(=O)c2cnn(-c3ccc(Cl)cc3)c2C2CCN(C(=O)OC(C)(C)C)CC2)cc1", "Histone-lysine N-methyltransferase EHMT2 (Homo sapiens)", "False"],
  ["Cc1ccc(OCC(=O)Nc2nnc(-c3ccco3)s2)cc1", "Histone-lysine N-methyltransferase EHMT2 (Homo sapiens)", "False"],
  ["COc1cccc2cc(-c3nc(Cl)c4c5c(sc4n3)CC(C)CC5)c(=O)oc12 (stereo not drawn)", "Histone-lysine N-methyltransferase EHMT2 (Homo sapiens)", "False"],
  ["Cc1ccccc1-c1nc(CS(=O)(=O)CC(=O)Nc2cc(Cl)cc(Cl)c2)c(C)o1", "Histone-lysine N-methyltransferase EHMT2 (Homo sapiens)", "False"],
  ["O=C(CCc1nc(CN2CCN(S(=O)(=O)c3ccc(F)cc3)CC2)no1)N1CCCCC1", "Histone-lysine N-methyltransferase EHMT2 (Homo sapiens)", "False"],
  ["O=C(Nc1ccccc1)Nc1nc2ccccc2s1", "Histone-lysine N-methyltransferase EHMT2 (Homo sapiens)", "False"],
  ["CCOC(=O)c1cccc(NC(=O)Cn2cnc3nc4c(cc3c2=O)CCCC4)c1", "Histone-lysine N-methyltransferase EHMT2 (Homo sapiens)", "False"],
  ["COc1cc(OC)cc(-c2nc3nc(C)c(CCC(=O)Nc4ccccc4)c(C)n3n2)c1", "Histone-lysine N-methyltransferase EHMT2 (Homo sapiens)", "False"],
  ["O=c1[nH]c(=O)n(Cc2ccco2)c2c1C(C(F)(F)F)(C(F)(F)F)N=C(c1ccco1)N2", "Histone-lysine N-methyltransferase EHMT2 (Homo sapiens)", "True"],
  ["CC(=O)Nc1nc(C)c(-c2csc(Nc3ccc(S(N)(=O)=O)cc3)n2)s1", "Histone-lysine N-methyltransferase EHMT2 (Homo sapiens)", "False"],
  ["O=C1CC(c2cccc(F)c2)C2=C(CCCC2=O)N1 (stereo not drawn)", "Histone-lysine N-methyltransferase EHMT2 (Homo sapiens)", "False"],
  ["CCCCN(C)CCCNC(=O)c1cc(-c2cccs2)nc2ccccc12", "Histone-lysine N-methyltransferase EHMT2 (Homo sapiens)", "False"],
  ["Cc1cccc(-c2nc3ccc(C(=O)NCCN4CCN(C)CC4)cc3nc2-c2cccc(C)c2)c1", "Histone-lysine N-methyltransferase EHMT2 (Homo sapiens)", "True"],
  ["COc1ccc(CC(=O)Nc2nc(-c3ccc(F)c(F)c3)cs2)cc1OC", "Histone-lysine N-methyltransferase EHMT2 (Homo sapiens)", "False"],
  ["O=C(Nc1nnc(-c2ccccc2)o1)c1cc(-c2cccs2)nc2ccccc12", "Histone-lysine N-methyltransferase EHMT2 (Homo sapiens)", "True"],
  ["Cc1ccccc1CN1C[C@@H]2C[C@@H](c3cn(C)nc3-c3ccccc3)N3CCC[C@@]23C1=O", "Histone-lysine N-methyltransferase EHMT2 (Homo sapiens)", "True"],
  ["COc1ccc(Nc2nc(-c3ccccc3)cs2)cc1", "Histone-lysine N-methyltransferase EHMT2 (Homo sapiens)", "True"],
  ["COc1ccc(OC)c(Nc2nc(-c3ccc(O)c(O)c3)cs2)c1", "Histone-lysine N-methyltransferase EHMT2 (Homo sapiens)", "True"],
  ["COc1ccc(S(=O)(=O)Nc2cc3c(C(=O)OC(C)C)c(C)oc3c3ccccc23)cc1", "Histone-lysine N-methyltransferase EHMT2 (Homo sapiens)", "False"],
  ["COc1cc(NC(=S)N2CCCC(C)C2)cc(OC)c1OC (stereo not drawn)", "Histone-lysine N-methyltransferase EHMT2 (Homo sapiens)", "True"],
  ["Cc1ccc(CN2CCN(Cc3ccccc3-c3ccco3)CC2CCO)o1 (stereo not drawn)", "Histone-lysine N-methyltransferase EHMT2 (Homo sapiens)", "False"],
  ["CCOc1ccc(C2CC(=O)c3c([nH]c(C(=O)OCc4ccccc4)c3C)C2)cc1 (stereo not drawn)", "Histone-lysine N-methyltransferase EHMT2 (Homo sapiens)", "False"],
  ["COc1ccc2nc(Nc3nc(-c4ccncc4)cs3)sc2c1", "Histone-lysine N-methyltransferase EHMT2 (Homo sapiens)", "False"]
]}

###

# system_under_test: Histone-lysine N-methyltransferase EHMT2 (Homo sapiens) (UniProt Q96KQ7)
# Sequence (Q96KQ7 913-1193 limits assumed): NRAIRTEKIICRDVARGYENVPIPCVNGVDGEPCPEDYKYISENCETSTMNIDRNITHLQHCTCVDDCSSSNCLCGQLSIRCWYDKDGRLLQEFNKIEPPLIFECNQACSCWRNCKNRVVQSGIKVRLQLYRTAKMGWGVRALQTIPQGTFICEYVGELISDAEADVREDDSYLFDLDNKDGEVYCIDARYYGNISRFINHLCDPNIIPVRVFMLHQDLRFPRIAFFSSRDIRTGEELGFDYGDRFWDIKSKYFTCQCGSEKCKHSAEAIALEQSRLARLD
# test_name: qHTS Assay for Inhibitors of Histone Lysine Methyltransferase G9a; further: nearly all actives have a fitted effect of over 75% in size
# condition: G9a H3K9 monomethylation, AlphaScreen, 2 h; series mostly up to 59 µM
The campaign covered roughly 350,000 compounds. About 31,000 (8.9%) were called active. About 15% were inconclusive and are not listed. The call rests on the fitted dose curve; in most records, active means well fitted inhibition curve with a large enough effect; inconclusive means small, poorly fitted or top-dose-only effect; inactive means no such curve, though single readings can be large or run the other way. The list comes from a sample in which actives are over-represented; it also holds close analogues and randomly drawn compounds.
Outcome codes: yes (1) for active, no (0) for inactive

{"columns": ["compound", "class_assignment"],
 "data": [
  ["CN(C)CCCN(C(=O)c1ccc(S(=O)(=O)N2CCCCCC2)cc1)c1nc2cc3c(cc2s1)OCCO3", "yes (1)"],
  ["CCOc1ccc(/C=C(\\C#N)c2nc3ccccc3c(=O)[nH]2)cc1OC", "no (0)"],
  ["O=C(/C=C/c1ccccc1)Nc1cc(-c2nc3cc(Cl)ccc3o2)ccc1Cl", "no (0)"],
  ["CCN(CC)CCN(C(=O)c1cc(Cl)sc1Cl)c1nc2cc3c(cc2s1)OCO3", "yes (1)"],
  ["Cc1ccc2nc(NC(=O)c3nc(SCc4ccccc4F)ncc3Cl)sc2c1", "no (0)"],
  ["Cc1ccc2nc(/C(C#N)=C/c3ccccc3F)[nH]c2c1", "no (0)"],
  ["CCNC(=S)N(CCN(CC)CC)Cc1cc2cc3c(cc2[nH]c1=O)OCO3", "no (0)"],
  ["O=C(NCC(c1ccco1)N1CCc2ccccc2C1)c1ccccc1Cl (stereo not drawn)", "no (0)"],
  ["CCN(CC)CCCNC(=S)N(CCO)Cc1cc2cc3c(cc2[nH]c1=O)OCO3", "no (0)"],
  ["Cc1nc2cc3c(cc2s1)OCO3", "no (0)"],
  ["Cc1nc2ccc(S(=O)(=O)NC(C(=O)NCc3ccccc3Cl)C(C)C)cc2s1 (stereo not drawn)", "no (0)"],
  ["O=C(NC1CCCC1)C(c1ccco1)N(C(=O)c1ccco1)c1ccc(F)cc1 (stereo not drawn)", "no (0)"],
  ["COc1ccc(-c2cn3c(n2)sc2cc(C(=O)Nc4ccccc4F)ccc23)cc1", "no (0)"]
]}

###

# system_under_test: Histone-lysine N-methyltransferase EHMT2 (Homo sapiens) (UniProt Q96KQ7)
# test_name: qHTS Assay for Inhibitors of Histone Lysine Methyltransferase G9a; further: nearly all actives have a fitted effect of over 75% in size
# condition: G9a H3K9 monomethylation, AlphaScreen, 2 h; series mostly up to 59 µM
Screen size: about 350,000 compounds; about 31,000 (8.9%) were called active. About 15% were inconclusive and are not listed. Calls follow the shape of the dose curve; as a rule, active = well fitted inhibition curve with a large enough effect; inconclusive = small, poorly fitted or top-dose-only effect; inactive = no such curve, though single readings can be large or run the other way. Many of the other results were omitted from the sample, so actives are more common in it than they were.
Outcomes: true for active, false for inactive

{"columns": ["compound", "class_assignment"],
 "data": [
  ["Cc1ccc(NS(=O)(=O)c2ccc(C(=O)NCCCN3CCOCC3)cc2)cc1", "false"],
  ["Cc1ccccc1OCC(=O)Nc1ccc(S(=O)(=O)N2CCOCC2)cc1", "false"],
  ["CCCCc1nc2ccccc2c(=O)n1NC(=O)c1c(O)c2cccc3c2n(c1=O)CC3", "false"],
  ["CCOC(=O)c1cnc2ccc(F)cc2c1Nc1ccc2c(c1)OCCO2", "false"],
  ["CCn1c(=N)n(CC(=O)c2cccc(OC)c2)c2ccccc21", "true"],
  ["COc1cc(C(=O)Nc2ccc(-n3c(C)nc4ccccc4c3=O)cc2)cc(OC)c1OC", "false"],
  ["Cc1[nH]c2ccccc2c1C(=O)CN1CC(C)CC(C)C1 (centres undefined)", "false"],
  ["Clc1ccc(CSc2nnc(/C=C/c3ccccc3)o2)c(Cl)c1", "false"],
  ["O=C(NNC(=S)Nc1ccccc1)c1cccc(S(=O)(=O)N2CCOCC2)c1", "true"],
  ["COc1ccc(Cn2c(=S)[nH]c3cc(C(=O)NCCCN4CCOCC4)ccc3c2=O)cc1", "true"],
  ["O=C(Cn1ccc2cc(S(=O)(=O)N3CCCC3)ccc21)NCc1ccccc1", "false"],
  ["Cc1c(C)n(Cc2ccc(Cl)cc2)c2ccc(C(=O)NCCCN3CCOCC3)cc12", "true"],
  ["CN1CCN(S(=O)(=O)c2ccc(NC(=S)NC(=O)C3CC3)cc2)CC1", "false"],
  ["CCn1cc2nc(SCc3cccc(F)c3)n(CCc3ccccc3)c(=O)c2n1", "false"],
  ["CCN(c1ccccc1)S(=O)(=O)c1cccc(C(=O)O)c1", "true"],
  ["Cc1ccn2cc(-c3nonc3C)cc2c1", "true"],
  ["Cc1cc(C)cc(NC(c2nnc(-c3cccc(F)c3)o2)c2ccc(F)cc2Cl)c1 (centres undefined)", "false"],
  ["CN(C)c1ccc(/C=C2\\NC(=S)N(Cc3ccccc3)C2=O)cc1", "false"],
  ["O=C(NC(=S)Nc1ccc(S(=O)(=O)N2CCOCC2)cc1)c1ccccc1[N+](=O)[O-]", "true"],
  ["COc1ccccc1NC(=O)c1sc2nc(C)c(C(=O)Nc3ccc(Cl)cc3)c(-c3ccc(Br)cc3)c2c1N", "false"],
  ["CCOC(=O)c1cc2c(=O)n3ccccc3nc2n(CCCOC)c1=NC(=O)C(C)(C)Oc1ccc(Cl)cc1", "false"],
  ["COc1ccc2cc(C(=O)O)n(CC(=O)c3ccccc3)c2c1", "false"],
  ["COc1ccc(C(=O)NC2CC2)cc1OC1CCN(Cc2ccc(SC)cc2)CC1", "false"],
  ["CCCCCn1c(=O)[nH]c2cc(C(=O)Nc3cc(C)cc(C)c3)ccc2c1=O", "false"],
  ["CN(C)CCn1c(=S)[nH]c2ccc(Cl)cc2c1=O", "true"],
  ["CCCCc1nc2ccccc2c(NC(=O)CN2CCN(C)CC2)c1CCC", "true"],
  ["O=C(N/N=C/C=C/c1ccco1)c1cccs1", "true"],
  ["COc1cccc(N2CCN(S(=O)(=O)c3ccc4c(c3)CCCN4C(C)=O)CC2)c1", "false"],
  ["CCN(CC)CCCNC(=O)c1ccc2c(=O)n(Cc3ccc4c(c3)OCO4)c(=S)[nH]c2c1", "true"],
  ["CCOC(=O)N1CCN(CC(=O)Nc2cc(C)nn2-c2nc3ccccc3s2)CC1", "false"],
  ["CCc1cnc2c(c1SCC(=O)c1ccccc1)c(=O)n(C)c(=O)n2C", "false"],
  ["O=C(CSc1ccc(-c2ccc(F)cc2)nn1)Nc1ccc2c(c1)OCCO2", "false"],
  ["CCOC(=O)c1c(C)[nH]c(C)c1S(=O)(=O)N1CCCC(C(=O)NCc2ccccc2Cl)C1 (centres undefined)", "false"],
  ["O=S(=O)(NCCc1ccncc1)c1ccccc1", "false"]
]}
